Property: TGI; scope: individual compounds
# Tested on: OVCAR-4 ovarian
# method_summary: NCI tumour cell line growth inhibition, 48 h

| compound | TGI |
| --- | --- |
| C=C(C)CCC1CCCCC(CN(C)C)C1=O (stereo not drawn) | > 100 µM |
| C#CC(O)/C=C/CCCCCCC#CC/C=C\CC#CCCCCCC/C=C/C(O)C#C (stereo not drawn) | 10.1 µM |
| CC1=C/C(=N/N2C(=O)/C(=C/c3ccc(Cl)cc3)N=C2c2ccccc2)CC(C)(C)C1 | > 100 µM |

* * *

# Test system: COLO 205 colon
# method_summary: NCI tumour cell line growth inhibition, 48 h
Each entry below carries its reported TGI.
reported_property: TGI

| compound | target_of_assay | result |
| --- | --- | --- |
| CC(C)CCCC(C)[C@H]1CC[C@H]2[C@@H]3CC[C@H]4C[C@@H](CCC=C(c5cc(Cl)c(O)c(C(=O)OC(C)(C)C)c5)c5cc(Cl)c(O)c(C(=O)OC(C)(C)C)c5)CC[C@]4(C)[C@H]3CC[C@]12C (some centres undefined) | COLO 205 colon | > 50 µM |
| O=[N+]([O-])c1ccc(/C=C/c2ccc(N=Nc3ccc(/C=C/c4ccc([N+](=O)[O-])cc4S(=O)(=O)O)c(S(=O)(=O)O)c3)cc2S(=O)(=O)O)c(S(=O)(=O)O)c1 | COLO 205 colon | > 100 µM |
| OC1C(O)C(O)C(O)C(O)C1O (centres undefined) | COLO 205 colon | > 1000 µM |
| O=C1CN(c2ccc(Cl)cc2)C(=O)CN1CCN1CC(=O)N(c2ccc(Cl)cc2)CC1=O | COLO 205 colon | > 100 µM |
| Cn1c(C(C#N)c2cc(Cl)ncn2)nc2ccccc21 (centres undefined) | COLO 205 colon | > 100 µM |
| C/C=C(/C)C(=O)O[C@@H]1c2c(C)coc2C[C@H]2CC[C@H](O)[C@H](C)[C@]21C | COLO 205 colon | > 100 µM |
| C=CCN1C(=O)/C(=C/c2ccc(C)cc2)N=C1SC/C=C/C | COLO 205 colon | 90.5 µM |
| COc1cc2c3c(n(CCCN4CCN(C)CC4)c(=O)c2cc1OC)-c1cc2c(cc1C3=O)OCO2 | COLO 205 colon | 40.3 µM |
| Cc1nc2c(nc1C)-c1c(c3c(n1Cc1ccccc1)C(=O)CCC3)C(=O)C2=O | COLO 205 colon | > 100 µM |
| CC1(C)OCC2OC3([C@H](O)CCO)OC(C)(C)OC3C2O1 (some centres undefined) | COLO 205 colon | > 100 µM |
| Cc1ccc(S(=O)(=O)N2CCSCCSCCN(S(=O)(=O)c3ccc(C)cc3)CCN(S(=O)(=O)c3ccc(C)cc3)CC2)cc1 | COLO 205 colon | > 100 µM |
| CN(C)CCNC(=O)c1cccc2cc3ccccc3nc12 | COLO 205 colon | 3.55 µM |
| Cc1cc(=O)oc2cc(OC(=O)Nc3ccc(Cl)c(Cl)c3)ccc12 | COLO 205 colon | 96.5 µM |
| COc1cc(NN=C(c2ccc(O)cc2)c2ccc(O)cc2)c([N+](=O)[O-])cc1[N+](=O)[O-] | COLO 205 colon | 23.2 µM |

Values were extracted from PubChem BioAssay (NCI).
